Recorded amyloid nucleation score values for a group of sequences are listed next.
assay: amyloid nucleation score (Sup35N fusion, yeast selection) (log enrichment); library NNK1; higher = more nucleation; inactive = no reads after selection;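 further: zero at mode of non-aggregating sequences after 7 days selection at 30°C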
Hey, just send me the number, nothing else.

Examples with their reported amyloid nucleation score follow.
INSERT INTO results (monomer_sequence, numeric_result) VALUES
  ('CFINSDVMVLLVTTYHYS', 7.32),
  ('FWDVTPWCHSRDCAVLFSRA', -1.37),
  ('KLWVNNQS', 0.198),
  ('QYRHTQSYRLELKVHGDFKR', -0.171),
  ('GYVDPFRLYQGLMIFDYVGS', -0.332);

Provide only the value of recorded amyloid nucleation score for "KRSSFYHWQWHGKSL"
-0.718
